# Test system: HL-60(TB) leukemia
# protocol details: NCI-60 one-dose screen, 48 h (100 = growth as untreated, 0 = no growth, -100 = all killed)
# measurement conditions: 10 µM unless noted
# Experimental: Growth inhibition of the HL-60(TB) human tumor cell line is measured as a screen for anti-cancer activity. Cells are grown in 96 well plates and exposed to the test compound for 48 hours. Compounds are tested at a single concentration, which is 10^-5 M for most compounds. The reported endpoint is percent growth (GI% or GIPRCNT), where numbers from 0 - 100% represent growth inhibition, and numbers from -100% - 0 represent cell death. For example, a value of 40 represents 60% growth inhibition. […]
The panel holds about 83,000 compounds, 20% with a hit somewhere; the sample as a whole holds those more often.
The threshold is inclusive: growth of exactly 50% counts as label 1; values below receive label 0.

Reference set, count: 10
{"compound": "COc1ccc(Cl)cc1NC(=O)c1cc2c([nH]1)-c1nc(NC(=O)C(C)(C)C)sc1CC2", "label class": "label 1"}
{"compound": "Ic1ccc2[nH]cc(SSc3c[nH]c4ccc(I)cc34)c2c1", "label class": "label 0"}
{"compound": "CCOC(=O)c1ccc2c(c1)nc(-c1ccc(Cl)cc1)n2-c1cc(C(C)(C)C)[nH]n1", "label class": "label 0"}
{"compound": "CN(C)c1ccc(/C=N/n2c(-c3cc(F)c(Cl)cc3Cl)nn(CN3CCOCC3)c2=S)cc1", "label class": "label 1"}
{"compound": "Cc1ccccc1NC(=O)N/C(N)=N/c1nc(C)c(C)s1", "label class": "label 0"}
{"compound": "N#Cc1c(NC(=O)c2cccc(Br)c2)sc2c1CCCC2", "label class": "label 1"}
{"compound": "COc1cc(-c2nc(-c3ccccc3)c(-c3ccccc3)[nH]2)cc(OC)c1O", "label class": "label 0"}
{"compound": "Cc1ccc(C(=O)/C(=C/c2ccc([N+](=O)[O-])cc2)S(=O)Cc2ccccc2)cc1 (stereo not given)", "label class": "label 0"}
{"compound": "N#Cc1c(O)c2c(c(O)c1C#N)C(=O)c1ccccc1C2=O", "label class": "label 0"}
{"compound": "Nc1c(C(=O)Nc2cccc(Cl)c2Cl)sc2nc3c(cc12)C(=O)CCC3", "label class": "label 1"}

hey, is growth for this one >= 50%? COc1ccc(C2CC(c3cccc(OC)c3)=NN2C(=O)c2cc(OC)c(OC)c(OC)c2)cc1 (stereo not given)
label 0

Threshold query (growth >= 50%) on Cc1ccc(N2C(=O)c3cccc4c(N)c(S(=O)(=O)O)cc(c34)C2=O)cc1
label 1

Can COc1ccc(C2C3=C(COC3=O)N(CCO)c3cc4c(cc32)CCC4)cc1 (stereo not given) be said to have growth at or above 50%?
label 0

// inclusive: growth at least 50%? input: NC(=S)N/N=C/Cc1ccccc1
label 0

---

# Tested on: HL-60(TB) leukemia
# protocol details: NCI-60 one-dose screen, 48 h (100 = growth as untreated, 0 = no growth, -100 = all killed)
# measurement conditions: 10 µM unless noted
Compounds without any hit were thinned out: in the full panel of roughly 83,000, 20% have a hit. Activity calls are given as the source filed them. How the source made its calls: active means growth percent below 10; inactive means the rest.
measured parameter: growth

// returns reported growth for input COc1ccc(-c2cnc(-c3ccc(F)cc3)[nH]2)cc1
74.9% (inactive)

So what's the measured growth for this one? Nc1c(C(=O)Nc2ccncc2)sc2nc3c(cc12)C(O)CCC3 (stereo not given)
95.4% (inactive)

Any idea what growth was measured for N#Cc1ccc(NC(=O)c2ccc3cccnc3c2O)cc1 ?
4.59% (active)

Record request: growth value, item C=CCn1c(SCC(=O)Nc2ccc(C(=O)/C=C/c3cc4cc(OC)ccc4nc3Cl)cc2)nnc1-c1ccc(Br)cc1
81.3% (inactive)

# lookup: growth of COc1ccc2[nH]cc(-c3nc(-c4cn(C)c5c(Cl)nccc45)cs3)c2c1
30.5% (inactive)

Which growth reading was recorded for the compound O=C(c1c(F)ccc(NS(=O)(=O)N2CC[C@@H](F)C2)c1F)c1c[nH]c2ncc(-c3cnc(C4CC4)nc3)cc12 ?
35.6% (inactive)

Item under review: Oc1ccc(CN2CCC(N3CCCCC3)CC2)c2cccnc12 . Reported growth?
28.2% (inactive)

Please report the recorded growth for N#CSCC(=O)c1ccc(Cl)cc1 .
73.4% (inactive)

growth lookup needed for O=C(CCc1nnc(CN(c2ccccc2)c2ccccc2)o1)c1nc2ccccc2[nH]1 , thanks.
84.1% (inactive)

---

# Tested on: HL-60(TB) leukemia
# protocol details: NCI-60 one-dose screen, 48 h
# measurement conditions: 10 µM unless noted
About 83,000 compounds went through this panel and 20% of them were active in at least one assay; those are over-represented in the sample as a whole. Active and inactive are the calls of the source. How the source made its calls: active means growth percent below 10; inactive means the rest.
Write down one outcome, taken from label 1 for active, label 0 for inactive

Study these solved cases before continuing.
{"compound": "CC1Cc2c(N(C)C)ncnc2N(C)c2ccc(O)cc21 (configuration not stated)", "label class": "label 0"}
{"compound": "N/C(=N\\N=C\\c1cc2ccccc2s1)N/N=C/c1cc2ccccc2s1", "label class": "label 0"}
{"compound": "O=[N+]([O-])C1C(c2ccccc2)C12c1ccccc1-c1ccccc12 (configuration not stated)", "label class": "label 1"}

// return assay outcome for O=C(c1ccccc1)C1OC1c1ccc([N+](=O)[O-])cc1 (configuration not stated)
label 0

Could you kindly confirm the outcome this assay logged for CC[C@H](C)C(=O)O[C@H]1CCC=C2C=C[C@H](C)C(CCC3C[C@@H](O)CC(=O)O3)[C@H]21 (some centres not stated) ?
label 0

Check the results log: what was the call for CC(=O)N1C(=S)NC(=O)C1Cn1c(-c2ccccc2)nc2ccccc21 (configuration not stated) ?
label 0

Outcome? COCCCNC1=C(C#N)C(=O)NC(c2cccs2)S1 (configuration not stated)
label 0

Short answer needed: outcome of this test for CC1CCN(S(=O)(=O)c2ccc(S(=O)(=O)N3CCCC(c4nc5c(nnn5Cc5cccc(Cl)c5)c(=O)[nH]4)C3)cc2)CC1 (configuration not stated) ?
label 0

What did this assay record as the result for Cc1ccc(NC2=CC(=O)C(=O)c3ccccc32)c(C)c1 ?
label 0

Could you check what this test reported for COc1ccc2c(c1)sc1nc(-c3ccc(N(C)C)cc3)cn12 ?
label 0

What call does the record list for O=C(O)CCC(=O)Nc1nnc(-c2ccccc2)s1 ?
label 0

Status in this test for N=C(N)N=Nc1ccc(O)cc1 ?
label 0

Name the outcome recorded for COc1ccc(/C=C/c2nc(-c3n[nH]c(=O)n3-c3ccccc3)c3ccccc3n2)cc1 in the assay.
label 0

Test call, this compound: COC(=O)Nc1nc2ccc(C(=O)c3ccccc3N(C)C3COC3)cc2[nH]1
label 0

# fetch the recorded call for CCN1CC(=O)N(/N=C2\C(=O)Nc3ccccc32)C1=S here
label 0

Hi, sorry to bother you, what did the test record for O=C1c2cccc3cccc(c23)C(=O)N1CC#Cc1ccc2c3c(cccc13)C(=O)N(CCO)C2=O ?
label 0

Field: outcome | Entry: NNC(=O)c1ccc(C(=O)NN)cc1
label 0

Which outcome was entered for the compound O=C(N/N=C/c1cccc(O)c1)c1ccc(C(F)(F)F)nc1Nc1cccc(C(F)(F)F)c1 in this test?
label 1

What is the recorded call for this compound in the test? O=CC1(C2(C=O)c3ccccc3-c3ccccc32)c2ccccc2-c2ccccc21
label 1

Just curious, what result did COc1cc(/C=C2/C=C(c3ccccc3)N(CCc3ccc(S(N)(=O)=O)cc3)C2=O)cc(OC)c1OC get here?
label 0

Each compound tested received a call. Report the one for CCNC1(NC#N)CCCCC1 .
label 0

Please indicate how the test categorized CCOC(=O)c1cc(C(=O)OCC)c(C)nc1C .
label 0

---

# Tested on: HL-60(TB) leukemia
# protocol details: NCI-60 one-dose screen, 48 h (100 = growth as untreated, 0 = no growth, -100 = all killed)
# measurement conditions: 10 µM unless noted
About 83,000 compounds went through this panel and 20% of them were active in at least one assay; those are over-represented in the sample as a whole.
measured parameter: growth (%)
Just the number in %, nothing appended.

{"molecule": "CCC(C)CC(C)C(=O)c1c(O)ccn(OC)c1=O (stereo not given)", "endpoint result": 94.6}
{"molecule": "COc1ccc2c(CCC(c3ccccc3)c3ccccc3)c3[n+](cc2c1OC)CCc1cc2c(cc1-3)OCO2", "endpoint result": -40.6}
{"molecule": "N#CC1=C(N)Oc2c(sc3c(F)cccc23)C1c1ccc(F)cc1 (stereo not given)", "endpoint result": 5.96}
{"molecule": "O=C(O)c1cn(C2CC2)c2cc(N3CCN(C(=O)N(c4ccccc4)c4nc(-c5ccccc5)cs4)CC3)c(F)cc2c1=O", "endpoint result": -39.9}
{"molecule": "Cc1ccc(NC(=O)Nc2ccc(-c3cccnc3)cc2N2CCC(CO)CC2)cc1", "endpoint result": 13.9}

What value of growth has been reported for the following molecule? COc1ccc(-c2n[nH]nc2-c2csc3ccccc23)cc1OC
10.1

I have this molecule here, COc1ccc(CN2C(=O)/C(=C\c3cc(OC)c(OC)c(OC)c3)c3ccccc32)cc1 , and I need its recorded growth.
-16.2

Reported growth, molecule COc1cc(-c2nn(C)nc2-c2cc3ccccc3s2)cc(OC)c1OC : ____
-3.84

Entry COc1cc(CSc2nc3ccc(Cl)cc3c(=O)n2Cc2ccccc2)cc(OC)c1OC has what growth?
14.7

Tell me the measured growth of O=C(NCCc1ccccc1)C1CCC(=O)N1Cc1ccc(Br)cc1 (stereo not given) , please.
89
